Readings of TGI for the listed molecules
System: TK-10 renal
Measurement notes: NCI tumour cell line growth inhibition, 48 h

| Molecule | TGI |
| --- | --- |
| O=C(c1ccccc1)C1N=NN(Cc2ccccc2[N+](=O)[O-])C1C(=O)c1ccccc1 (stereo unspecified) | > 100 µM |
| CC(C)(C)C(=O)Nc1c(C=O)ccc2[nH]cnc12 | > 100 µM |
| CN1CCCC2[C@@H]3CCC4c5nonc5CC[C@]4(C)C3CC[C@@]21C (stereo partly specified) | > 100 µM |
| C=C1CCC[C@@H](C)C(O)[C@@H]2OC(=O)C(=C)[C@@H]2C[C@@H](OC(C)=O)[C@@]2(C)CC[C@@H]1O2 (stereo partly specified) | 14.8 µM |
| Cc1ccc(/C(=N/Nc2ccc([N+](=O)[O-])cc2)Sc2cc(Cl)c(C)cc2S(N)(=O)=O)cc1 | 3.38 µM |

# context switch: different molecule, same TGI
Reported TGI of CC(=O)CC1(CBr)Nc2ccc([N+](=O)[O-])cc2NC1=O (stereo unspecified) : > 100 µM
